Target: Histamine H4 receptor (Homo sapiens, UniProt Q9H3N8)
Sequence (Q9H3N8 whole entry): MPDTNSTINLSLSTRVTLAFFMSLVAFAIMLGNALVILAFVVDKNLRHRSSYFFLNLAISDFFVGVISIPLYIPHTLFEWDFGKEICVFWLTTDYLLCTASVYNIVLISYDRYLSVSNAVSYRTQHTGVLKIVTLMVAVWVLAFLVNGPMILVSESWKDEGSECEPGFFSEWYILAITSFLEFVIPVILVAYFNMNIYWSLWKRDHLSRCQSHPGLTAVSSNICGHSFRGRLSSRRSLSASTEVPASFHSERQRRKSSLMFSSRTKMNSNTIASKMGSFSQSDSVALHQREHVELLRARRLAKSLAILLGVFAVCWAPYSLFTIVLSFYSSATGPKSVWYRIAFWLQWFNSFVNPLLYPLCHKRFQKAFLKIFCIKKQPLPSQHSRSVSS
Assay: Agonist activity at human histamine H4 receptor expressed in Sf9 cells co-expressing Galphai2 and Gbeta1gamma2 assessed as […] [35S]GTPgammaS binding relative to histamine
Format: functional
Endpoint Name: Emax (%)

[
  {
    "Sample Smiles": "CN1CCN(c2cc(NCc3ccc(O)cc3)nc(N)n2)CC1",
    "Measured On": "Histamine H4 receptor (Homo sapiens, UniProt Q9H3N8)",
    "Measurement Units": "%",
    "Emax": 37.7
  },
  {
    "Sample Smiles": "CN1CCN(c2cc(NCc3ccccc3)nc(N)n2)CC1",
    "Measured On": "Histamine H4 receptor (Homo sapiens, UniProt Q9H3N8)",
    "Measurement Units": "%",
    "Emax": 34.5
  },
  {
    "Sample Smiles": "CN1CCN(c2cc(NCc3ccccc3Cl)nc(N)n2)CC1",
    "Measured On": "Histamine H4 receptor (Homo sapiens, UniProt Q9H3N8)",
    "Measurement Units": "%",
    "Emax": 32.5
  },
  {
    "Sample Smiles": "Cc1ccccc1CNc1cc(N2CCN(C)CC2)nc(N)n1",
    "Measured On": "Histamine H4 receptor (Homo sapiens, UniProt Q9H3N8)",
    "Measurement Units": "%",
    "Emax": 23.7
  },
  {
    "Sample Smiles": "CN1CCN(c2cc(NCc3c(Cl)cccc3Cl)nc(N)n2)CC1",
    "Measured On": "Histamine H4 receptor (Homo sapiens, UniProt Q9H3N8)",
    "Measurement Units": "%",
    "Emax": 28.4
  },
  {
    "Sample Smiles": "CN1CCN(c2cc(NCc3ccc(C#N)cc3)nc(N)n2)CC1",
    "Measured On": "Histamine H4 receptor (Homo sapiens, UniProt Q9H3N8)",
    "Measurement Units": "%",
    "Emax": 24.3
  },
  {
    "Sample Smiles": "CN1CCN(c2cc(NCc3ccc(Cl)cc3)nc(N)n2)CC1",
    "Measured On": "Histamine H4 receptor (Homo sapiens, UniProt Q9H3N8)",
    "Measurement Units": "%",
    "Emax": 24
  },
  {
    "Sample Smiles": "CN1CCN(c2cc(NCc3ccc(F)cc3)nc(N)n2)CC1",
    "Measured On": "Histamine H4 receptor (Homo sapiens, UniProt Q9H3N8)",
    "Measurement Units": "%",
    "Emax": 28.5
  }
]
